Test: Pharmacokinetics in cynomolgus monkeys
Assay type: in vivo
Conditions: male, cynomolgus monkey, plasma, intravenous; read-out: CL, p
Procedure: The PK of Compound I in male cynomolgus monkeys was determined in plasma following single IV bolus and PO administration to non-naïve male cynomolgus s monkeys The vehicle used for IV was 20% wt/vol HPβCD, 1% vol/vol DMSO in saline and for PO was in 0.5% MC (suspension). Plasma samples were collected from 3 animals/group at 0.083, 0.25, 0.5, 1, 3, 6, 9, 12, 24, and 48 hours after dosing.
Reported property: clearance
Report as: number unit

Identify clearance associated with the compound C[S@@](=N)(=O)c1ccc(C(=O)Nc2cc(-c3ccc(F)cc3)ccc2N)cc1 9.4 mL/min/kg

----------
Biological target: hERG potassium channel (Homo sapiens, UniProt Q12809)
Construct: expressed in transfected cells
Sequence (Q12809 whole entry): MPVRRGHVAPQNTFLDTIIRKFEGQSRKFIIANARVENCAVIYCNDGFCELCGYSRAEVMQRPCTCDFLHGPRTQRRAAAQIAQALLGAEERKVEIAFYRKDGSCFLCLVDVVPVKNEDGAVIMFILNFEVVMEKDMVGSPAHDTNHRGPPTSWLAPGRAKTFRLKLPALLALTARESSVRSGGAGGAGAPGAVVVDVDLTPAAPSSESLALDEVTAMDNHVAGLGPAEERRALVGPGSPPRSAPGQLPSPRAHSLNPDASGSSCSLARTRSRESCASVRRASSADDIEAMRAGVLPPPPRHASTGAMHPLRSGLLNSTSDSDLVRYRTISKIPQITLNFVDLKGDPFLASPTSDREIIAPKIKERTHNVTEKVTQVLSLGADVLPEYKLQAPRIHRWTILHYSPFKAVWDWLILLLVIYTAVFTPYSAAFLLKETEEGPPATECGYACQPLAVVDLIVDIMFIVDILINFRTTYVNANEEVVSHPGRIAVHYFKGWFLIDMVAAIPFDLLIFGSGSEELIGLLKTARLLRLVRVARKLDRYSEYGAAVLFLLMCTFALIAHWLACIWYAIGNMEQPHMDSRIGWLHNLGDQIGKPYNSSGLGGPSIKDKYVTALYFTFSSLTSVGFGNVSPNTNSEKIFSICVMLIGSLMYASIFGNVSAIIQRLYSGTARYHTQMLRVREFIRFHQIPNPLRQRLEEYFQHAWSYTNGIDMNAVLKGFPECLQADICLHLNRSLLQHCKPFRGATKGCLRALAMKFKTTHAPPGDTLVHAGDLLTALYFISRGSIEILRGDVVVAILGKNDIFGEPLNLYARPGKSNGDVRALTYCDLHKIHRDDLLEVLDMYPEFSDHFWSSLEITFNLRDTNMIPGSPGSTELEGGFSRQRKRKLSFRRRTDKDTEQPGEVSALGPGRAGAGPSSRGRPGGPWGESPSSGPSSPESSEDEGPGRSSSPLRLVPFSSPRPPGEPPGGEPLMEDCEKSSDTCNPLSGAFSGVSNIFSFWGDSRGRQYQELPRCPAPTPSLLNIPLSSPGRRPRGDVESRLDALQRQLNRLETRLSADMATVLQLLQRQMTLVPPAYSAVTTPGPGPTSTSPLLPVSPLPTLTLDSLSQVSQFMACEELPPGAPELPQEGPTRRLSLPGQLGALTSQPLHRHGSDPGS
Experiment: hERG manual patch-clamp in HEK 293 cells
Assay type: cell-based
Conditions: definitive hERG assay, replicates of 3; read-out: hERG potassium current IC50
Protocol: The effects of Compound I on a cloned human ether-à-go-go-related gene (hERG) potassium channels stably expressed in human embryonic kidney (HEK) 293 cells were measured using manual patch-clamp technique. Briefly, Compound I was soluble at 100 uM in 0.3% DMSO, pH 6.9. A does range-finding (DRF) assay was performed with Compound I at 3. 30, and 100 uM concentrations.
Reported property: IC50

Give IC50 only, for C[S@@](=N)(=O)c1ccc(C(=O)Nc2cc(-c3ccc(F)cc3)ccc2N)cc1 , using hERG potassium channel (Homo sapiens, UniProt Q12809) data. 71.1 µM

----------
experiment: Free fraction in mouse plasma; assay type: in vitro ADME; details: C57BL/6 mouse plasma
Reported property: fraction unbound
Number, no unit, nothing else.

Identify fraction unbound associated with the compound C[S@@](=N)(=O)c1ccc(C(=O)Nc2cc(-c3ccc(F)cc3)ccc2N)cc1 0.101

----------
molecular target: hERG potassium channel (Homo sapiens); construct: expressed in transfected cells; assay: hERG manual patch-clamp in HEK 293 cells; assay type: cell-based; conditions: human, HEK 293 cells stably expressing hERG; 100 uM; dose range-finding assay; read-out: inhibition of hERG currents
Reported property: inhibition at 100 µM (%)
Number in %, nothing else.

Identify inhibition at 100 µM associated with the molecule C[S@@](=N)(=O)c1ccc(C(=O)Nc2cc(-c3ccc(F)cc3)ccc2N)cc1 [Compound I] 73.6

----------
experiment: Pharmacokinetics in cynomolgus monkeys; format: in vivo; conditions: male, cynomolgus monkey, plasma
Reported property: half-life (h)
Number in h, nothing else.

Identify half-life associated with the compound C[S@@](=N)(=O)c1ccc(C(=O)Nc2cc(-c3ccc(F)cc3)ccc2N)cc1 6.8

----------
Target: T1, CYP2C8 (Homo sapiens, UniProt P10632)
T1 sequence (P10632 1-490): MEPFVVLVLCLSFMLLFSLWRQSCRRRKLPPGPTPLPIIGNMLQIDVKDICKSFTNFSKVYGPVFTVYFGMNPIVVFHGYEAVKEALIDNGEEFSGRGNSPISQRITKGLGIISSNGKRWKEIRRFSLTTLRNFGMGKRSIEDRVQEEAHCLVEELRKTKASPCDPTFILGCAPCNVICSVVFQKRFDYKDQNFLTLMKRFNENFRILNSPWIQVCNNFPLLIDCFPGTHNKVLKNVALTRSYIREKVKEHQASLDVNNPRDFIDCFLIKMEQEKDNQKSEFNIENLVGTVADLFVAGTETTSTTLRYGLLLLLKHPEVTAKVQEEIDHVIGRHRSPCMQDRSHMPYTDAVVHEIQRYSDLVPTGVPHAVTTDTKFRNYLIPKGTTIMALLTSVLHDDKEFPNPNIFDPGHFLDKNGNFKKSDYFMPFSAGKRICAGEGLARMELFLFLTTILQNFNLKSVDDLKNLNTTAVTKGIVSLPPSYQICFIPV
Assay: Metabolism by recombinant human CYP2C8
Assay type: in vitro ADME
Settings: read-out: terminal half life (T1/2), rh CYP2C8
Reported property: half-life

Identify half-life associated with the molecule C[S@@](=N)(=O)c1ccc(C(=O)Nc2cc(-c3ccc(F)cc3)ccc2N)cc1 [Compound I] > 1 h

The reported numbers originate from patent US20260041653A1.
